Origin of values: the supplement of paper PMC9170038

Each entry below carries its reported apparent KD of MS2 coat protein.
- System: MS2 coat protein
- protocol-text: apparent KD of MS2 coat protein; designed switch direction (-1 OFF switch, 1 ON switch): -1; higher = weaker reporter binding
- test-conditions: Eterna round: R95; input ligand: microRNA oligo, concentration not stated
# value in µM; strip the unit string

| polymer-sequence | unit-label | apparent KD of MS2 coat protein |
| --- | --- | --- |
| GUGAAACAUGAGGAUCACCCAUGUGAGGAUAUGAUUAAGUAAUGAUGAAAGUAUAUAUUCAGAAGGCACAAUGG [Mat - Mod of JL D73] (puzzle: Exclusion 1) | µM | 0.0833 |
| ACCUCACAUGAGGAUCACCCAUGUCAGGAUAUACAAGAAAAUAACCGGAAAGACCGGAGUAGAAGGGACAUAAG [Arisus] (puzzle: Exclusion 1) | µM | 0.0162 |

Please turn your attention to the following entry.
Data point: AAGUACCGUCACGAUAGUGAUGGUACAGCAAGCAGUGAAACAUGAGGAUCACCCAUGUCCUCAAUUGCUCGUCUUAU [Sensor 3 - 78] (puzzle: Sensor v3, turn-off variant 2) ; apparent KD of MS2 coat protein = 0.211
